Let's look at some molecules and their measured pIC50.
# Tested on: HepG-2, HCT-116, MCF-7 and HeLa cells
# Method Notes: MTT cytotoxicity assay, all four cancer cell lines together
# Assay type: cell-based
# Condition Set: read-out: Cytotoxic activity category, all four tested cancer cell lines
pIC50: −log10 of the molar value.

| Molecule | Assay Target | pIC50 |
| --- | --- | --- |
| COc1cc(/C=N/NC(=O)c2nnn(Cc3nc4ccccc4[nH]3)c2C)ccc1O [Compound 6g] | HepG-2, HCT-116, MCF-7 and HeLa cells | 5.00 to 6.00 |
| Cc1c(C(=O)N/N=C/c2ccc(Cl)cc2)nnn1Cc1nc2ccccc2[nH]1 [Compound 6a] | HepG-2, HCT-116, MCF-7 and HeLa cells | 4.30 to 4.68 |

---

# Test system: WI-38 cell line
# Method Notes: In vitro cytotoxicity against normal WI-38 cell line
# Format: cell-based
# Condition Set: Homo sapiens, WI-38, read-out: Normal cells IC50 WI-38
Property Label: IC50 (µM)

| Molecule | Property Label | Endpoint Result |
| --- | --- | --- |
| COc1cc(/C=N/NC(=O)c2nnn(Cc3nc4ccccc4[nH]3)c2C)ccc1O [Compound 6g] | IC50 | 43.3 |

---

# System: HepG-2 cells
# Method Notes: MTT cytotoxicity assay, HepG-2
# Assay type: cell-based
# Condition Set: Homo sapiens, HepG2, 48 h, read-out: In vitro Cytotoxicity IC50 HepG-2
Let's look at some compounds and their measured IC50.
Property Label: IC50 (µM)

| Compound | Assay Target | Property Label | Unit Annotation | Endpoint Result |
| --- | --- | --- | --- | --- |
| Cc1c(C(=O)N/N=C/c2cccc([N+](=O)[O-])c2)nnn1Cc1nc2ccccc2[nH]1 | HepG-2 cells | IC50 | µM | 71.5 |
| COc1cc(/C=N/NC(=O)c2nnn(Cc3nc4ccccc4[nH]3)c2C)ccc1O | HepG-2 cells | IC50 | µM | 10.9 |
| Cc1c(C(=O)N/N=C/c2ccccc2)nnn1Cc1nc2ccccc2[nH]1 | HepG-2 cells | IC50 | µM | 84.5 |
| Cc1c(C(=O)N/N=C/c2cccc(Br)c2)nnn1Cc1nc2ccccc2[nH]1 | HepG-2 cells | IC50 | µM | 56.3 |
| Cc1c(C(=O)N/N=C/c2ccc(Cl)cc2)nnn1Cc1nc2ccccc2[nH]1 | HepG-2 cells | IC50 | µM | 47 |
| COc1ccc(NC(=S)NNC(=O)c2nnn(Cc3nc4ccccc4[nH]3)c2C)cc1 | HepG-2 cells | IC50 | µM | 13.6 |
| COc1cccc2c1C(=O)c1c(O)c3c(c(O)c1C2=O)C[C@@](O)(C(=O)CO)C[C@@H]3O[C@H]1C[C@H](N)[C@H](O)[C@H](C)O1 [Dox, Doxorubicin, reference compound] | HepG-2 cells | IC50 | µM | 4.5 |
| COc1ccc(/C=N/NC(=O)c2nnn(Cc3nc4ccccc4[nH]3)c2C)cc1OC | HepG-2 cells | IC50 | µM | 33.6 |
| Cc1c(C(=O)NNC(=O)Nc2cccc3ccccc23)nnn1Cc1nc2ccccc2[nH]1 | HepG-2 cells | IC50 | µM | 67.4 |

---

# Assay Target: EGFR (Homo sapiens)
# Sequence (P00533 25-1210): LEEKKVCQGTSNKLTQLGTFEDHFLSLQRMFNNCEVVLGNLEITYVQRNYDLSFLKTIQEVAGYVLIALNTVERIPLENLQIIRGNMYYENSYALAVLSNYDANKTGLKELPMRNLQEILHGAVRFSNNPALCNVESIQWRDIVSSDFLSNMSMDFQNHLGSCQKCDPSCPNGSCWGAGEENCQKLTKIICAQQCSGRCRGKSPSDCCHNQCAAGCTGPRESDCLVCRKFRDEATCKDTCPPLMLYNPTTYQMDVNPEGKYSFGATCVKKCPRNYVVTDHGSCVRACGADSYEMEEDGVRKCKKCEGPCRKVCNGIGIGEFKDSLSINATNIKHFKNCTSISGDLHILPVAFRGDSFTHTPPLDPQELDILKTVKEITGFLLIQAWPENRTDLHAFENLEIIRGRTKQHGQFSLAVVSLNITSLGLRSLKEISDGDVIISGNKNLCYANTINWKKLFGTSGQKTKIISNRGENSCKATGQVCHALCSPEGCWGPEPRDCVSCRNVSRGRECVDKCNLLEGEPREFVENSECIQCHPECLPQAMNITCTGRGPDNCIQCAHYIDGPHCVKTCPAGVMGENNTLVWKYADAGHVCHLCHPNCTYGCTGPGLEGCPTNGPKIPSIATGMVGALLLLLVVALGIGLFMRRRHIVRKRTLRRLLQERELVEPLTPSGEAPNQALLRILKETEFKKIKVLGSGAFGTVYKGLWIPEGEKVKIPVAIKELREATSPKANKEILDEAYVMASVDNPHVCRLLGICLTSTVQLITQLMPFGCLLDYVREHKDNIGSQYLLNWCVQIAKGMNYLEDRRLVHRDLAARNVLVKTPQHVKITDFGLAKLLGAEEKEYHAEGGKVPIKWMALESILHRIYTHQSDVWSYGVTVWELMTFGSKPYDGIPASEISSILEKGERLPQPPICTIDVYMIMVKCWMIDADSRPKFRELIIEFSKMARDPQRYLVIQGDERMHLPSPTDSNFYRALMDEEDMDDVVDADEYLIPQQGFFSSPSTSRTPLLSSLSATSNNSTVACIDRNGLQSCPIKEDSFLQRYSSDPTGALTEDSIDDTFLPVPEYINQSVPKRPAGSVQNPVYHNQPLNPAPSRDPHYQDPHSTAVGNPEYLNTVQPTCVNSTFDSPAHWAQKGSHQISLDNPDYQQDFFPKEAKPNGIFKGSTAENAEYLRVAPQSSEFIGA
# Method Notes: biochemical
# Type: biochemical
pIC50: −log10 of the molar value.

| Compound | Assay Target | pIC50 |
| --- | --- | --- |
| COc1cc(/C=N/NC(=O)c2nnn(Cc3nc4ccccc4[nH]3)c2C)ccc1O [Compound 6g] | EGFR (Homo sapiens) | 6.88 |
